Quick reference for IC50 among some molecules
test system: KB; assay: cells; assay type: ADME, cell-based; conditions: Homo sapiens
Description: Cytotoxicity against human KB cells
Number in µg/mL, nothing else.

[C-]#[N+][C@]1(C)[C@H](C)C[C@@H]2C[C@H](C)[C@H]3CC[C@](C)([N+]#[C-])[C@H]4CC[C@H]1[C@@H]2[C@H]34 [DIISOCYANOADOCIANE]
4.7

Now look at this one.
Param readout = IC50; param system = KB; param query = C[C@@H]1C[C@@H]2C[C@H](C)[C@H]3CC[C@](C)(N=C=O)[C@H]4CC[C@@H]([C@@H]2[C@H]34)[C@]1(C)C#N ; response: value 2

###

Quick reference for IC50 among some compounds
tested on: KB; assay: cells; assay type: ADME, cell-based; details: Homo sapiens

Example cases with answers are listed next.
C[C@H]1C[C@H]2CC(C)(C)CC3=CC[C@H]4[C@@H]([C@@H]1CC[C@]4(C)C#N)[C@@H]32
> 20 µg/mL
CC(C)=CCC[C@@H](C)[C@H]1CC[C@](C)(N=C=S)[C@H]2CCC(C)=C[C@H]12
> 20 µg/mL
C=C(C)C1CC[C@@H]2[C@H]3CCC(C)[C@H]3[C@H]12 (some centres undefined)
> 20 µg/mL

Now look at this one.
I'd like to know its IC50. The compound in question is C[C@@H]1C[C@@H]2C[C@H](C)[C@H]3CC[C@](C)(C#N)[C@H]4CC[C@@H]([C@@H]2[C@H]34)[C@]1(C)N=C=O 4.3 µg/mL

###

experiment: Selectivity index, ratio of IC50 for human KB cells to IC50 for Plasmodium falciparum W2; format: toxicity, cell-based; details: read-out: Ratio IC50
READOUT_KIND: selectivity ratio
Could you respond with only the numeric value?

Example cases with answers are listed next.
C[C@@H]1C[C@@H]2C[C@H](C)[C@H]3CC[C@](C)(N=C=S)[C@H]4CC[C@@H]([C@@H]2[C@H]34)[C@]1(C)C#N
56
[C-]#[N+][C@]1(C)[C@H](C)C[C@@H]2C[C@H](C)[C@H]3CC[C@](C)([N+]#[C-])[C@H]4CC[C@H]1[C@@H]2[C@H]34
1100

Now look at this one.
I'd like to know its selectivity ratio. The compound in question is OC(c1cc(C(F)(F)F)nc2c(C(F)(F)F)cccc12)C1CCCCN1 (centres undefined) 970

###

assay: Selectivity index, ratio of IC50 for human KB cells to IC50 for Plasmodium falciparum W2; assay type: toxicity, cell-based; conditions: read-out: Ratio IC50
READOUT_KIND: selectivity ratio

C=C1CC[C@H]2[C@H]3[C@H](CC[C@]2(C)C#N)[C@@H](C)C[C@@H](CC(C)(C)N=C=S)[C@H]13
> 183
C=C(C)[C@@H]1C=C2C(C)CC[C@@H]2C(C)CC1 (some centres undefined)
> 2.3
C=C[C@H]1CN2CC[C@H]1C[C@H]2[C@H](O)c1ccnc2ccc(OC)cc12 [QUININE]
> 370

Now look at this one.
I'd like to know its selectivity ratio. The molecule in question is C=C(C)/C=C/[C@]12C[C@H](C)[C@H]3CC[C@](C)(C#N)[C@@H](CC[C@H]1C)[C@@H]32 640

###

experiment: Selectivity index, ratio of IC50 for human KB cells to IC50 for Plasmodium falciparum D6; assay type: toxicity, cell-based; conditions: read-out: Ratio IC50
READOUT_KIND: selectivity ratio
Could you respond with only the numeric value?

Example cases with answers are listed next.
C=C1CC[C@H]2[C@H]3[C@H](CC[C@]2(C)N=C=S)[C@@H](C)C[C@H](C=C(C)C)[C@]13O
6.6
CC1=C[C@@H]2C[C@H](C)[C@H]3CC[C@](C)(C#N)[C@H]4CC[C@@H]([C@@H]2[C@H]34)[C@@H]1C
290

I'd like to know its selectivity ratio. The compound in question is C=C(C)/C=C/[C@]12C[C@H](C)[C@H]3CC[C@](C)(C#N)[C@@H](CC[C@H]1C)[C@@H]32 210

###

assay: Selectivity index, ratio of IC50 for human KB cells to IC50 for Plasmodium falciparum D6; type: toxicity, cell-based; conditions: read-out: Ratio IC50
READOUT_KIND: selectivity ratio
Could you respond with only the numeric value?

Example cases with answers are listed next.
C[C@@H]1C[C@@H]2C[C@H](C)[C@H]3CC[C@](C)(N=C=S)[C@H]4CC[C@@H]([C@@H]2[C@H]34)[C@]1(C)C#N
35
C[C@H]1C[C@H]2CC(C)(C)C=C3CC[C@H]4[C@@H]([C@@H]1CC[C@]4(C)C#N)[C@@H]32
200

I'd like to know its selectivity ratio. The compound in question is C[C@@H]1C[C@@H]2C[C@H](C)[C@H]3CC[C@](C)(N=C=O)[C@H]4CC[C@@H]([C@@H]2[C@H]34)[C@]1(C)C#N 27

I'd like to know its selectivity ratio. The compound in question is [C-]#[N+][C@]1(C)[C@H](C)C[C@@H]2C[C@H](C)[C@H]3CC[C@](C)([N+]#[C-])[C@H]4CC[C@H]1[C@@H]2[C@H]34 [DIISOCYANOADOCIANE] 1000

I'd like to know its selectivity ratio. The compound in question is C=C1CC[C@H]2[C@H]3[C@H](CC[C@]2(C)C#N)[C@@H](C)C[C@H](C=C(C)C)[C@H]13 230

I'd like to know its selectivity ratio. The compound in question is OC(c1cc(C(F)(F)F)nc2c(C(F)(F)F)cccc12)C1CCCCN1 (centres undefined) [MEFLOQUINE] 490

I'd like to know its selectivity ratio. The compound in question is C[C@@H]1C[C@@H]2C[C@H](C)[C@H]3CC[C@](C)(C#N)[C@H]4CC[C@@H]([C@@H]2[C@H]34)[C@]1(C)N=C=O 1340

I'd like to know its selectivity ratio. The compound in question is CC(C)=C[C@H]1C[C@H](C)[C@H]2CC[C@](C)(C#N)[C@H]3CCC(C)=C1[C@H]23 260

###

tested on: KB; experiment: cells; assay type: ADME, cell-based; conditions: Homo sapiens
READOUT_KIND: log10(IC50) (log10 of the value in µg/mL)
Hello, just confirming the data are log10 of IC50 with units of µg/mL.

C[C@@H]1C[C@@H]2C[C@H](C)[C@H]3CC[C@](C)(N=C=S)[C@H]4CC[C@@H]([C@@H]2[C@H]34)[C@]1(C)C#N
0.20
C[C@H]1C[C@H]2CC(C)(C)C=C3CC[C@H]4[C@@H]([C@@H]1CC[C@]4(C)C#N)[C@@H]32
1.16
C=C1CC[C@H]2[C@H]3[C@H](CC[C@]2(C)C#N)[C@@H](C)C[C@H](C=C(C)C)[C@H]13
0.51
C=C(C)/C=C/[C@]12C[C@H](C)[C@H]3CC[C@](C)(C#N)[C@@H](CC[C@H]1C)[C@@H]32
1.28
CC(C)=C[C@H]1C[C@H](C)[C@H]2CC[C@](C)(C#N)[C@H]3CCC(C)=C1[C@H]23
1.18
C=C1CC[C@H]2[C@H]3[C@H](CC[C@]2(C)N=C=S)[C@@H](C)C[C@H](C=C(C)C)[C@]13O
0.72

Now look at this one.
Param readout = log10(IC50); param system = KB; param query = CC1=C[C@@H]2C[C@H](C)[C@H]3CC[C@](C)(C#N)[C@H]4CC[C@@H]([C@@H]2[C@H]34)[C@@H]1C ; response: value 1.26

###

Quick reference for selectivity ratio among some molecules
assay: Selectivity index, ratio of IC50 for human KB cells to IC50 for Plasmodium falciparum W2; type: toxicity, cell-based; settings: read-out: Ratio IC50

Example cases with answers are listed next.
CC(C)=C[C@H]1C[C@H](C)[C@H]2CC[C@](C)(C#N)[C@H]3CCC(C)=C1[C@H]23
590
C[C@H]1C[C@H]2CC(C)(C)CC3=CC[C@H]4[C@@H]([C@@H]1CC[C@]4(C)C#N)[C@@H]32
> 700

I'd like to know its selectivity ratio. The molecule in question is C=C(C)C[C@@H]1C[C@H](C)[C@H]2CC[C@](C)(C#N)[C@H]3CCC(=C)[C@@H]1[C@H]23 > 82.6

I'd like to know its selectivity ratio. The molecule in question is C[C@@H]1C[C@@H]2C[C@H](C)[C@H]3CC[C@](C)(C#N)[C@H]4CC[C@@H]([C@@H]2[C@H]34)[C@]1(C)N=C=O 1710

###

test: Selectivity index, ratio of IC50 for human KB cells to IC50 for Plasmodium falciparum D6; type: toxicity, cell-based; conditions: read-out: Ratio IC50
Quick reference for selectivity ratio among some molecules

C[C@H]1C[C@H]2CC(C)(C)CC3=CC[C@H]4[C@@H]([C@@H]1CC[C@]4(C)C#N)[C@@H]32
> 240
C=C[C@H]1CN2CC[C@H]1C[C@H]2[C@H](O)c1ccnc2ccc(OC)cc12 [QUININE]
> 1800

I'd like to know its selectivity ratio. The molecule in question is C=C(C)C[C@@H]1C[C@H](C)[C@H]2CC[C@](C)(C#N)[C@H]3CCC(=C)[C@@H]1[C@H]23 > 38.5

I'd like to know its selectivity ratio. The molecule in question is O=Cc1ccc(O)cc1 [4-HYDROXYBENZALDEHYDE] > 2.7

I'd like to know its selectivity ratio. The molecule in question is C=C1CC[C@H]2[C@H]3[C@H](CC[C@]2(C)C#N)[C@@H](C)C[C@@H](CC(C)(C)N=C=S)[C@H]13 > 42.6

I'd like to know its selectivity ratio. The molecule in question is CC(C)=C[C@@H]1C[C@H](C)[C@H]2CC[C@](C)(C#N)[C@H]3CC=C(C)[C@@H]1[C@H]23 > 66.2
